Origin of the recorded values: patent US20100216795A1

target of assay: human TNIK (N-terminal segment, TNIK_N) (Homo sapiens)
Construct: made in house; host or cells: Sf21 insect cells (baculovirus)
Sequence (Q9UKE5 1-314): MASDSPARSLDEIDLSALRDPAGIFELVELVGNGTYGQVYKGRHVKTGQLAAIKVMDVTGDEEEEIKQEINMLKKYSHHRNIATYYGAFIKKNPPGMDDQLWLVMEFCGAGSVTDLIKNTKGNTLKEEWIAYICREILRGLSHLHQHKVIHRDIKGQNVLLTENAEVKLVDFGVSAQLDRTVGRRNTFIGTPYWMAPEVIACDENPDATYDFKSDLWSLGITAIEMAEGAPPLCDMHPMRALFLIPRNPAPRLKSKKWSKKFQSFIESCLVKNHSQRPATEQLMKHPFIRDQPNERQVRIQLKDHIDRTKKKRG
experiment summary: TNIK kinase assay (mobility shift)
Assay type: biochemical
experimental parameters: 25 μM ATP, 1 h at room temperature
Text: A cDNA encoding the N-terminal segment (TNIK_N, residues 1-314) containing the kinase domain of human TNIK (NM_015028.1) was amplified from cDNA mixture synthesized from human tissue (Biochain) by PCR using the following primers: 5′-[…]-3′ ([SEQ ID NO:1]: forward primer, the underlined nucleotides indicates the location of a EheI site); 5′-[…]-3′ ([SEQ ID NO:2]: reverse primer, the underlined nucleotides indicates the location of a NotI site). […]
Please provide measured pIC50 for the entries that follow.
Numbers only, as −log10 of the molar value.

Take a look at these entries with their results.
| compound | test value |
| --- | --- |
| CC(=O)Nc1ccc(C(=O)Nc2sc(Nc3cccnc3)nc2C(N)=O)cc1 [Compound A20] | 8.05 |
| NC(=O)c1nc(Nc2cccnc2)sc1NC(=O)c1ccc(NCCc2ccncc2)cc1 [Compound A84] | 8.70 |

For every record below, what is its pIC50?
1. NC(=O)c1nc(Nc2ccncc2)sc1NC(=O)c1ccc(F)cc1 [Compound A76]
2. CC(=O)Nc1ccc(C(=O)Nc2sc(Nc3ccc(C)cc3)nc2C(N)=O)cc1 [Compound 10]

RESULT:
8.15
7.85
